// provenance: paper PMC4552634

# key: entry, value: % Inhibition
system: P. falciparum stage V gametocytes; parameters: BacTiter-Glo ATP luminescence viability of purified stage V gametocytes in 384-well plates, per cent inhibition versus DMSO; details: 48 h, 5 µM; inhibitor
The whole screen tested about 13,000 compounds, of which about 3,200 (25%) showed an effect of 50% or more. The list shows a part of the results.

| MOLECULE | VALUE_UNIT | % Inhibition |
| --- | --- | --- |
| CC(O)c1cccc(-c2ccc(Nc3ccnc4cc(-c5nccs5)ccc34)cc2)c1 (stereo not drawn) | % | -54.01 |
| c1ccc(Cn2nnnc2-c2cccc(Nc3ccnc4cc(-c5nccs5)ccc34)c2)cc1 | % | 1.923 |
| Cc1noc(C)c1-c1ccc2c(Nc3ccccc3C(C)(C)C)c(C(=O)NCc3ccc4c(c3)OCO4)cnc2c1.Cl | % | 56.26 |
| Cc1cccc(-c2cc3cc(Nc4ccnc5cc(-c6nccs6)ccc45)ccc3[nH]2)c1 | % | -37.38 |
| O=C(Nc1cc(C(F)(F)F)cc(C(F)(F)F)c1)c1cc(Cl)ccc1O | % | 22.2 |
| CC1CN(S(=O)(=O)c2ccc(NC(=O)c3cc(-c4ccccc4O)n[nH]3)cc2)CC(C)O1 (stereo not drawn) | % | 7.357 |
| CC(C(=O)OCCOCn1cnc2c(=O)[nH]c(N)nc21)N(C)C(=O)OC(C)(C)C (stereo not drawn) | % | 21.46 |
| CC(C)CN(Cc1c(O)ccc2[nH]c(-c3ccc(F)cc3F)nc12)CC(C)C | % | -65.39 |
| Cc1noc(C)c1-c1ccc2c(Nc3ccc(Cl)cc3)c(C(N)=O)cnc2c1.Cl | % | 9.933 |
| Cc1nnc(-c2cccc(Nc3ccnc4cc(-c5nccs5)ccc34)c2)o1 | % | 93.46 |
| Nc1n[nH]c(-c2ccccc2Nc2ccnc3cc(-c4nccs4)ccc23)n1 | % | 14.85 |
| Cc1noc(C)c1-c1ccc2c(Nc3ccccc3C(C)(C)C)c(C(=O)NCc3ccc(C(F)(F)F)cc3)cnc2c1.Cl | % | -20.49 |
| O=C(C=CC(=O)N1CCCCC1)NCc1ccccc1 | % | 19.39 |
| Cc1noc(C)c1-c1ccc2c(Nc3ccccc3N3CCOCC3)c(C(=O)NCc3ccccc3)cnc2c1.Cl | % | -0.5011 |
| CN(C)Cc1c(O)ccc2[nH]c(-c3cccc(F)c3)nc12 | % | -72.73 |
| CN1CC=C(c2csc3ccc(NC(=O)Nc4ccc(-c5ccncc5)c5ccccc45)cc23)CC1 | % | 89.24 |
| COc1ccc2nccc([C@@H](O)CN3CCC(NCc4cc5cccc(OC)c5o4)CC3)c2c1 | % | -7.327 |
| c1ccc(-c2nc3ccccc3[nH]2)c(Nc2ccnc3cc(-c4nccs4)ccc23)c1 | % | 44.29 |
| CCOc1cccc(C(=O)Nc2cccc(CN3CCCN(Cc4cccc(O)c4)CC3)c2)c1 | % | -4.748 |
| N#CC1(c2ccccc2)CCN(c2nc(NCCCN3CCCC3=O)nc(N3CCCC4CCCCC43)n2)CC1 (stereo not drawn) | % | -17.2 |
| CN(Cc1ccc(C#N)cc1)C1CCN(c2cc(NC(=O)c3ccc(F)cc3)ccn2)CC1 | % | 9.957 |
| CN1CCC(c2csc3ccc(NC(=O)Nc4ccc(-c5ccncc5)c5ccccc45)cc23)CC1 | % | 21.21 |
| CC(=O)c1cccc2cc(C(=O)NC3CCC(CCN4CCc5ccc(C#N)cc5C4)CC3)[nH]c12 (stereo not drawn) | % | 14.52 |
| Cc1ccc2nc(-c3ccccc3Nc3ccnc4cc(-c5nccs5)ccc34)[nH]c2c1 | % | 108.2 |
| CN(Cc1cc(C(F)(F)F)cc(C(F)(F)F)c1)C(=O)C(Cc1ccc(F)cc1)C1CCCNC1 (stereo not drawn) | % | 92.9 |
| CCCn1c(SCC(=O)Nc2cc(C(F)(F)F)ccc2Cl)n[nH]c1=O | % | -8.395 |
| Cc1ncccc1C(=O)Nc1cccc(-c2cccc(-c3nc4ccc(C(F)(F)F)cc4[nH]3)c2)c1 | % | -20.59 |
| O=C(Nc1ccc(Cl)cc1)c1cccc2[nH]c(C(F)(F)F)nc12 | % | 11.96 |
| Cc1cc(NC(=O)NCCN2CCC(NS(=O)(=O)c3ccccc3F)CC2)c2ccccc2n1 | % | 1.757 |
| CC(=O)c1ccc(Nc2c(C(N)=O)cnc3cc(-c4c(C)noc4C)ccc23)cc1 | % | -8.163 |
| O=C(Nc1ccc(Cl)cc1)c1cc(Cl)cc2[nH]c(C(F)(F)F)nc12 | % | 55.63 |
| COc1ccccc1-n1c(SCC(=O)c2ccc3c(c2)CC(=O)N3C)nnc1-c1cccs1 | % | 56.33 |
| CN(C)Cc1c(O)ccc2[nH]c(-c3ccc(F)cc3F)nc12 | % | 71.11 |
